# Kb per record follows
# target: cholecystokinin receptors (Cavia porcellus)
# Construct: Isolated, strip preparations were prepared from gall-bladders removed from male Dunkin-Hartley guinea-pigs; from tissue; host or cells: guinea-pig gall-bladder strips
# Sequence (Q63931 whole entry): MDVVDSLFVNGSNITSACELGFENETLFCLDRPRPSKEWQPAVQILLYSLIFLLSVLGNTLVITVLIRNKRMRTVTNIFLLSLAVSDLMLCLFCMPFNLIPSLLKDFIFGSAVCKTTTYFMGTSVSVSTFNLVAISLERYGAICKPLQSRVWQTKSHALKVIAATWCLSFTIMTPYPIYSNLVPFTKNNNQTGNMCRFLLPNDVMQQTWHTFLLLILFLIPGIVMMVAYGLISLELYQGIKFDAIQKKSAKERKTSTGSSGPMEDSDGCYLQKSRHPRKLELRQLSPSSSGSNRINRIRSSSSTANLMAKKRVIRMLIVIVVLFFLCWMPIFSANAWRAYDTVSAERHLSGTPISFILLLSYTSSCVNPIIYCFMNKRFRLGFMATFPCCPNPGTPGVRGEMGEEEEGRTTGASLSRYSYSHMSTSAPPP
# assayName: CCK-antagonist activity in isolated guinea-pig gall-bladder strip preparations
# Assay type: cell-based
# conditionDescription: guinea-pig gall-bladder strips; CCK-8 as agonist; test compound incubated for 60 minutes; standard errors less than 5%
Non-standard residues stand in square brackets, D forms with d. Residues, ends and D or L forms follow the SMILES beside them. *: point of attachment. 2Nal = N[C@@H](Cc1ccc2ccccc2c1)C(=O)O; d1Nal = N[C@H](Cc1cccc2ccccc12)C(=O)O; Adoc = O=C(OC12CC3CC(CC(C3)C1)C2)*; Phe(ol) = N[C@H](CO)Cc1ccccc1; Boc = CC(C)(C)OC(=O)*

| compound | Kb |
| --- | --- |
| CC(C)(C)OC(=O)N[C@@H](Cc1c[nH]c2ccccc12)C(=O)N[C@@H](Cc1ccc2ccccc2c1)C(=O)N[C@@H](CC(=O)O)C(=O)N[C@@H](Cc1ccccc1)C(N)=O [Example 1] (Boc-W[2Nal]DF-NH2) | 5010 nM |
| CC(C)(C)OC(=O)N[C@@H](Cc1c[nH]c2ccccc12)C(=O)N[C@@H](Cc1ccc2ccccc2c1)C(=O)N[C@H](CC(=O)O)C(=O)N[C@@H](Cc1ccccc1)C(N)=O [Example 12] (Boc-W[2Nal][dD]F-NH2) | 39.8 nM |
| CC(C)(C)OC(=O)N[C@H](Cc1c[nH]c2ccccc12)C(=O)N[C@@H](Cc1ccc2ccccc2c1)C(=O)N[C@@H](CC(=O)O)C(=O)N[C@@H](Cc1ccccc1)C(N)=O [Example 22] (Boc-[dW][2Nal]DF-NH2) | 631 nM |
| NC(=O)[C@H](Cc1ccccc1)NC(=O)[C@H](CC(=O)O)NC(=O)[C@H](Cc1ccc2ccccc2c1)NC(=O)[C@H](Cc1c[nH]c2ccccc12)NC(=O)OC12CC3CC(CC(C3)C1)C2 [Example 13] (Adoc-W[2Nal]DF-NH2) | 1260 nM |
| CC(C)(C)OC(=O)N[C@@H](Cc1c[nH]c2ccccc12)C(=O)N[C@H](Cc1cccc2ccccc12)C(=O)N[C@@H](CC(=O)O)C(=O)N[C@@H](Cc1ccccc1)C(N)=O [Example 24] (Boc-W[d1Nal]DF-NH2) | 316 nM |
| CC(C)(C)OC(=O)N[C@@H](Cc1c[nH]c2ccccc12)C(=O)N[C@@H](Cc1ccc2ccccc2c1)C(=O)N[C@@H](CC(=O)O)C(=O)N[C@H](CO)Cc1ccccc1 [Example 9] (Boc-W[2Nal]D[Phe(ol)]) | 1260 nM |

----------
# pKB per record follows
# target: cholecystokinin receptors (Cavia porcellus)
# Construct: Isolated, strip preparations were prepared from gall-bladders removed from male Dunkin-Hartley guinea-pigs; from tissue; host or cells: guinea-pig gall-bladder strips
# assayName: CCK-antagonist activity in isolated guinea-pig gall-bladder strip preparations
# Type: cell-based
# conditionDescription: guinea-pig gall-bladder strips; CCK-8 as agonist; test compound incubated for 60 minutes; standard errors less than 5%
Non-standard residues stand in square brackets, D forms with d. Residues, ends and D or L forms follow the SMILES beside them. *: point of attachment. Phe(4-Cl) = N[C@@H](Cc1ccc(Cl)cc1)C(=O)O; 2Nal = N[C@@H](Cc1ccc2ccccc2c1)C(=O)O; Boc = CC(C)(C)OC(=O)*

| compound | target | pKB |
| --- | --- | --- |
| NC(=O)[C@H](Cc1ccccc1)NC(=O)[C@H](CC(=O)O)NC(=O)[C@H](Cc1ccc2ccccc2c1)NC(=O)CCc1c[nH]c2ccccc12 | cholecystokinin receptors (Cavia porcellus) | 6.2 |
| CC(C)(C)OC(=O)N[C@@H](Cc1c[nH]c2ccccc12)C(=O)N[C@@H](Cc1ccc2ccccc2c1)C(=O)N[C@@H](CC(=O)O)C(=O)NCCc1ccc(C(F)(F)F)cc1 | cholecystokinin receptors (Cavia porcellus) | 6.4 |
| COc1cccc(CCNC(=O)[C@H](CC(=O)O)NC(=O)[C@H](Cc2ccc3ccccc3c2)NC(=O)[C@H](Cc2c[nH]c3ccccc23)NC(=O)OC(C)(C)C)c1 | cholecystokinin receptors (Cavia porcellus) | 7.2 |
| CC(C)(C)OC(=O)N[C@@H](Cc1c[nH]c2ccccc12)C(=O)N[C@@H](Cc1ccc2ccccc2c1)C(=O)N[C@@H](CC(=O)O)C(=O)N[C@@H](Cc1ccc(Cl)cc1)C(N)=O [Example 11] (Boc-W[2Nal]D[Phe(4-Cl)]-NH2) | cholecystokinin receptors (Cavia porcellus) | 5.9 |
| CC(C)(C)OC(=O)N[C@@H](Cc1c[nH]c2ccccc12)C(=O)N[C@@H](Cc1ccc2ccccc2c1)C(=O)N[C@@H](CC(=O)O)C(=O)NC1Cc2ccccc2C1 | cholecystokinin receptors (Cavia porcellus) | 6.6 |
| CNC(=O)[C@H](Cc1ccccc1)NC(=O)[C@H](CC(=O)O)NC(=O)[C@H](Cc1ccc2ccccc2c1)NC(=O)[C@H](Cc1c[nH]c2ccccc12)NC(=O)OC(C)(C)C [Example 5] (Boc-W[2Nal]DF-NHMe) | cholecystokinin receptors (Cavia porcellus) | 5.4 |
| COc1cc(OC)c(CCNC(=O)[C@H](CC(=O)O)NC(=O)[C@H](Cc2ccc3ccccc3c2)NC(=O)[C@H](Cc2c[nH]c3ccccc23)NC(=O)OC(C)(C)C)c(OC)c1 | cholecystokinin receptors (Cavia porcellus) | 6.4 |
| COc1ccc(CNC(=O)[C@H](CC(=O)O)NC(=O)[C@H](Cc2ccc3ccccc3c2)NC(=O)[C@H](Cc2c[nH]c3ccccc23)NC(=O)OC(C)(C)C)cc1 | cholecystokinin receptors (Cavia porcellus) | 7.0 |
| CC(C)(C)OC(=O)N[C@@H](Cc1c[nH]c2ccccc12)C(=O)N[C@@H](Cc1ccc2ccccc2c1)C(=O)N[C@@H](CC(=O)O)C(=O)NCCc1ccc(F)cc1 | cholecystokinin receptors (Cavia porcellus) | 6.7 |
| CC(C)(C)OC(=O)N[C@@H](Cc1c[nH]c2ccccc12)C(=O)N[C@@H](Cc1ccc2ccccc2c1)C(=O)N[C@@H](CC(=O)O)C(=O)N[C@@H]1CCC[C@H]1c1ccccc1 (single isomer, unassigned; diastereomer 1) [Example 31] | cholecystokinin receptors (Cavia porcellus) | 6.5 |
